All figures here come from the supplement of paper PMC7214452.

System: SU-DHL1 (cancer type: TCL)
Assay: normalized area under the dose-response curve (viability relative to DMSO control) (fraction); higher = less sensitive (more viable cells)
Details: exposure time not given
Where a name gives a salt, the structure may show the parent alone.
Measure name: normalized area under the dose-response curve
Give bare numbers.

Consider the worked cases shown below.
>>> observed("Cc1cn(-c2cc(NC(=O)c3ccc(C)c(Nc4nccc(-c5cccnc5)n4)c3)cc(C(F)(F)F)c2)cn1 [Nilotinib]")
0.851
>>> observed("CNC(=O)c1cc(Oc2ccc(NC(=O)Nc3ccc(Cl)c(C(F)(F)F)c3)cc2)ccn1 [Sorafenib]")
0.576

Record normalized area under the dose-response curve for all entries; do not skip any.
1. Cc1ccc(NC(=O)c2ccc(CN3CCN(C)CC3)cc2)cc1Nc1nccc(-c2cccnc2)n1 [Imatinib]
2. Cc1sc2c(c1C)C(c1ccc(Cl)cc1)=N[C@@H](CC(=O)OC(C)(C)C)c1nnc(C)n1-2 [jq1]
3. O=C(/C=C/c1cccc(S(=O)(=O)Nc2ccccc2)c1)NO [Belinostat]
4. Cc1nc(Nc2ncc(C(=O)Nc3c(C)cccc3Cl)s2)cc(N2CCN(CCO)CC2)n1 [Dasatinib]
5. O=C(c1ccc(OCCN2CCCCC2)cc1)c1c(-c2ccc(O)cc2)sc2cc(O)ccc12 [Raloxifene]

Output:
0.774
0.674
0.218
0.862
0.677

Record normalized area under the dose-response curve for all entries; do not skip any.
1. CC(C)C[C@H](NC(=O)CNC(=O)c1cc(Cl)ccc1Cl)B(O)O [Ixazomib]
2. C#Cc1cccc(Nc2ncnc3cc(OCCOC)c(OCCOC)cc23)c1 [Erlotinib hydrochloride]
3. CC(=O)OC[C@H]1O[C@@H]([S-])[C@H](OC(C)=O)[C@@H](OC(C)=O)[C@@H]1OC(C)=O.CCP(CC)CC.[Au+] [Auranofin]
4. Nc1ncn([C@H]2C[C@H](O)[C@@H](CO)O2)c(=O)n1 [Decitabine]

Output:
1: 0.186; 2: 0.87; 3: 0.139; 4: 0.962

Input: normalized area under the dose-response curve lookup needed for Cc1ccc(F)c(NC(=O)Nc2ccc(-c3cccc4[nH]nc(N)c34)cc2)c1 [Linifanib] , thanks.
Output: 0.519

* * *

System: RPMI 8226 (cancer type: MM)
Experiment: normalized area under the dose-response curve (viability relative to DMSO control) (fraction); higher = less sensitive (more viable cells)
Conditions: exposure time not given
Counter-ions that a name gives are not always drawn.
Could you please report measured normalized area under the dose-response curve for the items listed next?

>>> observed("Cn1c(CCCC(=O)O)nc2cc(N(CCCl)CCCl)ccc21 [Bendamustine hydrochloride]")
0.879
>>> observed("COc1cc2/c(=N/c3ccc(Br)cc3F)nc[nH]c2cc1OCC1CCN(C)CC1")
0.905
>>> observed("Nc1ncn([C@@H]2O[C@H](CO)[C@@H](O)[C@H]2O)c(=O)n1")
0.665
>>> observed("Cc1nc(Nc2ncc(C(=O)Nc3c(C)cccc3Cl)s2)cc(N2CCN(CCO)CC2)n1")
0.739
>>> observed("O=C(CCCCCCC(=O)Nc1ccccc1)NO")
0.721
>>> observed("CO[C@H]1C[C@@H]2CC[C@@H](C)[C@@](O)(O2)C(=O)C(=O)N2CCCC[C@H]2C(=O)O[C@H]([C@H](C)C[C@@H]2CC[C@@H](OCCO)[C@H](OC)C2)CC(=O)[C@H](C)/C=C(\\C)[C@@H](O)[C@@H](OC)C(=O)[C@H](C)C[C@H](C)/C=C/C=C/C=C/1C")
0.769

Note: attention shifts to another entry.
Input: normalized area under the dose-response curve lookup needed for O=C(/C=C/c1cccc(S(=O)(=O)Nc2ccccc2)c1)NO , thanks.
Output: 0.564
